// cross-source set; read-out = Ki; system = Melanocyte-stimulating hormone receptor (Homo sapiens)
Give the number; nM is assumed, so skip it.

Consider the worked cases shown below.
INPUT SMILES	Ki [nM]
N=C(N)NCCC[C@@H]1C[C@H](OCc2ccc3ccccc3c2)CN1C(=O)[C@@H](Cc1ccccc1)NC(=O)[C@@H]1CCCCN1	1790
N=C(N)NCCC[C@H](NC(=O)[C@H](Cc1ccccc1)NC(=O)[C@H](Cc1cnc[nH]1)NC(=O)C(N)=O)C(=O)N[C@@H](Cc1c[nH]c2ccccc12)C(N)=O	62
N=C(N)NCCC[C@H](NC(=O)[C@H](Cc1ccccc1)NC(=O)[C@H](Cc1c[nH]cn1)NC(=O)CO)C(=O)N[C@@H](Cc1c[nH]c2ccccc12)C(N)=O	125
O=C(NCCc1ccc(Cl)cc1Cl)c1ccc(NC(=NC2CCCCC2)N2CCNCC2)cc1	400
CSCC[C@H](NC(=O)[C@H](CCCNC(=N)N)NC(=O)[C@H](Cc1ccc(O)cc1)NC(C)=O)C(=O)N[C@@H](CCC(=O)O)C(=O)N[C@@H](Cc1cnc[nH]1)C(=O)N[C@H](Cc1ccccc1)C(=O)N[C@@H](CCCNC(=N)N)C(=O)N[C@@H](Cc1c[nH]c2ccccc12)C(=O)NCC(=O)N[C@@H](CO)C(=O)N1CCC[C@H]1C(=O)N1CCC[C@H]1C(=O)N[C@@H](CCCCN)C(=O)N[C@@H](CC(=O)O)C(N)=O	0.09

We next turn to a different compound, shown below.
The measured Ki that CC(=O)N[C@@H](Cc1c[nH]cn1)C(=O)N[C@H](Cc1ccccc1)C(=O)N1C[C@H](OCc2ccc3ccccc3c2)C[C@H]1CCCN=C(N)N showed for Melanocyte-stimulating hormone receptor (Homo sapiens) is 4.7

* * *

// cross-source set; read-out = Ki; system = Melanocyte-stimulating hormone receptor (Homo sapiens, UniProt Q01726)
Sequence (Q01726 whole entry): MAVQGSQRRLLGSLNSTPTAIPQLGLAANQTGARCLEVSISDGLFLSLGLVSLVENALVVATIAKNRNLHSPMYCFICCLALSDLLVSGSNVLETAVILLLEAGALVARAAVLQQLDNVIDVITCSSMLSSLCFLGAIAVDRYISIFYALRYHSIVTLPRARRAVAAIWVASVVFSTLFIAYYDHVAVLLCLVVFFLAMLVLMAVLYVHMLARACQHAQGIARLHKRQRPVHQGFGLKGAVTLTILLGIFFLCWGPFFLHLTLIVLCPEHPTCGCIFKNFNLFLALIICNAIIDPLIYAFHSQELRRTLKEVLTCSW
# if measured Ki < 600 nM: Fulfilled  # else: Not fulfilled

The examples below pair each entry with its known result.
MOLECULE	TARGET OR SYSTEM	GROUP LABEL
C#Cc1ccc2c(c1)C(=O)N[C@H](C)C(=O)N[C@@H](Cc1c[nH]cn1)C(=O)N[C@H](Cc1ccccc1)C(=O)N[C@@H](CCCNC(=N)N)C(=O)N[C@@H](Cc1c[nH]c3ccccc13)C(=O)N[C@H](C(N)=O)CS2	Melanocyte-stimulating hormone receptor (Homo sapiens, UniProt Q01726)	Fulfilled
CS(=O)(=O)N[C@@H](Cc1c[nH]cn1)C(=O)N[C@@H](Cc1ccccc1)C(=O)N[C@@H](CCCN=C(N)N)C(=O)N[C@@H](Cc1c[nH]c2ccccc12)C(N)=O	Melanocyte-stimulating hormone receptor (Homo sapiens, UniProt Q01726)	Fulfilled
O=C(N[C@H](Cc1ccc(Cl)cc1)C(=O)N1CCN(c2cccc3c2CN(S(=O)(=O)c2ccccc2)CC3)CC1)[C@H]1Cc2ccccc2CN1	Melanocyte-stimulating hormone receptor (Homo sapiens, UniProt Q01726)	Not fulfilled
N=C(N)NCCC[C@@H]1C[C@@H](OCc2ccc3ccccc3c2)CN1C(=O)[C@@H](Cc1ccccc1)NC(=O)[C@@H]1CCCCN1	Melanocyte-stimulating hormone receptor (Homo sapiens, UniProt Q01726)	Fulfilled
C#Cc1ccc2c(c1)C(=O)N[C@@H](Cc1c[nH]cn1)C(=O)N[C@H](Cc1ccccc1)C(=O)N[C@@H](CCCNC(=N)N)C(=O)N[C@@H](Cc1c[nH]c3ccccc13)C(=O)N[C@H](C(N)=O)CS2	Melanocyte-stimulating hormone receptor (Homo sapiens, UniProt Q01726)	Fulfilled

Ask: In the record for NCCCCCC(=O)N(Cc1ccc2ccccc2c1)Cc1cccc2ccccc12 , is Ki less than 600 nM?
Result: Not fulfilled

Ask: In the record for CC(=O)N[C@@H](Cc1ccc(O)cc1)C(=O)N[C@H](Cc1ccccc1)C(=O)N1C[C@@H](OCc2ccc3ccccc3c2)C[C@H]1CCCN=C(N)N , is Ki less than 600 nM?
Result: Not fulfilled
